Origin of the recorded values: ChEMBL document CHEMBL1201862

system: Hs-578T; test: NCI tumour cell line growth inhibition, 48 h
Activity calls are given as the source filed them. No stated cut-off is given here; in the data, active = GI50 up to about 1.1 µM and inactive = higher.
Your answer must be one of the following: True (active), False (inactive)

For this compound, state the assay outcome: NS(=O)(=O)c1ccc(NS(=O)(=O)c2ccc(NC(=O)N(c3ccccc3)c3ccccc3)cc2)cc1 False

For this compound, state the assay outcome: O[C@@]1(c2cccs2)c2cccc(Cl)c2[C@](O)(c2cccs2)c2cccc(Cl)c21 False

For this compound, state the assay outcome: CCOC(=O)C(CCSC)(CCSC)C(=O)OCC False

For this compound, state the assay outcome: COC(=O)Cc1c([C@H]2[C@H](CC(=O)OC)c3ccccc3N2S(=O)(=O)c2ccc(C)cc2)[nH]c2ccccc12 False

For this compound, state the assay outcome: COC1=CC(=O)N(C)C(O)C1(C#N)OC1OC(CO)C(O)C(O)C1O (configuration not stated) False

For this compound, state the assay outcome: COC1CC(C)(NC(C)=O)C2OC(c3ccccc3)OCC2O1 (configuration not stated) False

For this compound, state the assay outcome: CCC(C(=O)c1cccs1)C(O)(C(F)(F)F)C(F)(F)F (configuration not stated) False

====

system: KM12; assay: NCI tumour cell line growth inhibition, 48 h
Calls of active or inactive are those of the source. Rule as the data show it: active = GI50 up to about 1.1 µM and inactive = higher.
measure: GI50

{"structure": "COC(=O)[C@@]12OC[C@]34[C@H]([C@@H](O)[C@@H]1O)[C@@]1(C)CC(=O)C(OC(C)=O)=C(C)[C@@H]1C[C@H]3OC(=O)[C@H](OC(=O)C=C(C)C)[C@@H]24", "experimental.system": "KM12", "GI50": "0.596 µM (active)"}
{"structure": "Cn1c2ccccc2c2c3c(c4c5ccccc5n(C)c4c21)C(=O)N(c1ccccc1)C3=O", "experimental.system": "KM12", "GI50": "> 100 µM (inactive)"}

For the compound CC1(C)C(=O)C(C)(C)C1=S , give its measured GI50 value. > 100 µM (inactive)

For the compound CN(CCCNC(=O)c1nn(-c2ccccc2)c2c1Cc1ccccc1-2)CCCNC(=O)c1nn(-c2ccccc2)c2c1Cc1ccccc1-2 , give its measured GI50 value. 1.9 µM (inactive)

For the compound CCCCCCCCCCCCCCCCCc1cc(Cl)nc(Cl)n1 , give its measured GI50 value. > 100 µM (inactive)

For the compound O=C(O)CCC[C@]1(O)O[C@@]2(CCCC2=O)[C@]2(O)CCC[C@@]21O , give its measured GI50 value. > 100 µM (inactive)

====

system: OVCAR-8; experiment: NCI tumour cell line growth inhibition, 48 h
The source made the active and inactive calls. Rule as the data show it: active = GI50 up to about 1.1 µM and inactive = higher.
Recorded GI50 for the following compounds

{"compound": "COC(=O)C1=C(O)C(C(=O)OC)[C@]2(O)[C@@H](C(=O)OC)[C@H]1[C@H](C)[C@@H](c1ccccc1)[C@@H]2C(=O)OC (stereo partly drawn)", "GI50": "54.2 µM (inactive)"}

For the compound Cn1cc(NC(=O)c2cc(NC(=O)CCCCCCCCCCC(=O)Nc3cc(C(=O)Nc4cc(C(=O)NCCC(=N)N)n(C)c4)n(C)c3)cn2C)cc1C(=O)NCCC(=N)N , give its measured GI50 value. 20.3 µM (inactive)

For the compound NS(=O)(=O)c1ccc(NS(=O)(=O)c2ccc(NC(=O)N(c3ccccc3)c3ccccc3)cc2)cc1 , give its measured GI50 value. > 100 µM (inactive)

====

tested on: MDA-MB-435; assay: NCI tumour cell line growth inhibition, 48 h
The source made the active and inactive calls. Rule as the data show it: active = GI50 up to about 1.1 µM and inactive = higher.
Recorded GI50 for the following compounds

{"compound": "O=C(O)c1cccc(NC(C(=O)c2ccccc2)c2ccccc2)c1 (stereo unspecified)", "measured.value": "> 100 µM (inactive)"}

Please respond with reported GI50 (system MDA-MB-435) for Brc1ccc(/N=N/N2CCCC2)cc1 . 48.1 µM (inactive)

Please respond with reported GI50 (system MDA-MB-435) for CC1(C)N=C(N)N=C(N)N1c1ccc(OCC(=O)Nc2cccc(S(=O)(=O)F)c2)c(Cl)c1 . 4.52 µM (inactive)

Please respond with reported GI50 (system MDA-MB-435) for CC(=O)OCCC1c2ccccc2-n2nc(-c3ccccc3)c(O)c21 (stereo unspecified) . 16.9 µM (inactive)

Please respond with reported GI50 (system MDA-MB-435) for CC(=O)/N=C1\NC(=O)/C(=C/c2ccc(/C=C3/C(=O)N/C(=N\C(C)=O)N3C)cc2)N1C . > 100 µM (inactive)

Please respond with reported GI50 (system MDA-MB-435) for OC1[C@H](O)CN(OCc2ccccc2)C[C@@H]1O (stereo partly specified) . > 100 µM (inactive)

====

system: CCRF-CEM; test: NCI tumour cell line growth inhibition, 48 h
Active and inactive are the calls of the source. Rule as the data show it: active = GI50 up to about 1.1 µM and inactive = higher.
Your answer must be one of the following: active, inactive

# count of solved cases: 6
{"compound": "CC1(C)OC(=O)C(C)(C)C(=O)O1", "qualitative.label": "inactive"}
{"compound": "O=C(/N=C1/OC(CN2CCOCC2)CN1C(=O)Nc1ccccc1)Nc1ccccc1 (stereo unspecified)", "qualitative.label": "inactive"}
{"compound": "COc1cc2c(c(OC)c1OC)-c1ccc(SC)c(=O)cc1C(CC(=O)Oc1ccc([N+](=O)[O-])cc1)C2 (stereo unspecified)", "qualitative.label": "active"}
{"compound": "Oc1ccc2ccccc2c1/N=N/c1cccc2ccccc12", "qualitative.label": "inactive"}
{"compound": "CCOC(=O)C1=C(Nc2ccc(Br)cc2)OCC1=O", "qualitative.label": "inactive"}
{"compound": "CC1(C)OC2OC(COC(=O)c3ccc(C#N)cc3)C3OC(C)(C)OC3C2O1 (stereo unspecified)", "qualitative.label": "inactive"}

For this compound, state the assay outcome: C=C(CCOC)CCC1CCCCC(=C)[C@H]1O (stereo partly specified) inactive

For this compound, state the assay outcome: COc1ccccc1NC(=S)Nc1cc(C)cc(C)n1 inactive

For this compound, state the assay outcome: C=CC[C@@H](N)C(=O)N(C)[C@@H](C)[C@@H](O)c1ccccc1 inactive

For this compound, state the assay outcome: COC(=O)CCSC(=O)Nc1ccc(/N=N/c2ccccc2)cc1 inactive

For this compound, state the assay outcome: Cc1cccc(NC(=O)CCl)c1 inactive

For this compound, state the assay outcome: CC1=C(N2CC2)C(=O)C(C)=C(N2CC2)C1=O active

For this compound, state the assay outcome: N#Cc1c(-c2ccc(Cl)cc2)[nH]c(=O)n(C2OC(CO)C(O)C(O)C2O)c1=O (stereo unspecified) inactive

====

system: OVCAR-4; experiment: NCI tumour cell line growth inhibition, 48 h
Active and inactive are the calls of the source. Cut-off read from the data, not from the text of the source: active = GI50 up to about 1.1 µM and inactive = higher.
Recorded GI50 for the following molecules

{"molecule": "CC(C)(C)OC(=O)c1ccc(NCC2=CC(=O)C=CC2=O)cc1", "GI50": "8.85 µM (inactive)"}
{"molecule": "COc1ccccc1-c1cc(=O)c2ccc(OC)c(OC)c2o1", "GI50": "38.4 µM (inactive)"}
{"molecule": "COc1ccc([N+](=O)[O-])c2c(NCC(O)CO)ccnc12 (centres undefined)", "GI50": "13.5 µM (inactive)"}

Please respond with reported GI50 (system OVCAR-4) for CC(=O)OCC(=O)[C@@]12OC(C)(C)O[C@@H]1C[C@H]1[C@@H]3CC=C4C[C@@H](O)CC[C@]4(C)[C@H]3CC[C@@]12C . > 100 µM (inactive)

====

test system: HT-29; test: NCI tumour cell line growth inhibition, 48 h
The source made the active and inactive calls. No stated cut-off is given here; in the data, active = GI50 up to about 1.1 µM and inactive = higher.
Your answer must be one of the following: Yes for active, No for inactive

# count of solved cases: 5
{"molecule": "COC(=O)Cc1c([C@H]2[C@H](CC(=O)OC)c3ccccc3N2S(=O)(=O)c2ccc(C)cc2)[nH]c2ccccc12", "qualitative.label": "No"}
{"molecule": "CCOC(=O)/C=C/c1c(C)[nH]c(=O)[nH]c1=O", "qualitative.label": "No"}
{"molecule": "CCNc1cnc2c(n1)c(=O)n(C)c(=O)n2C", "qualitative.label": "No"}
{"molecule": "CNC1=C(C)C(=O)C2=C(C1=O)C(COC(N)=O)C1(OC)C3NC3CN21 (stereo not given)", "qualitative.label": "Yes"}
{"molecule": "COC(=O)C1CCc2nnc(-c3ccccc3)n21 (stereo not given)", "qualitative.label": "No"}

For this molecule, state the assay outcome: C=C(CCC(C)C1CCC2C3=C(C(=O)CC21C)C1(C)CCC(=O)[C@@H](C)C1CC3=O)C(C)C(=O)O (stereo not given in full) No

For this molecule, state the assay outcome: O=c1nc(/C=C/c2ccccc2Cl)cc2n1CCN2CCO No

For this molecule, state the assay outcome: CCOC(=O)/C=C(\C)c1ccc(Cl)cc1 No

For this molecule, state the assay outcome: CCOC(=O)C(CCSC)(CCSC)C(=O)OCC No

For this molecule, state the assay outcome: C[C@H]1CN[C@@H]2[C@@H](C)[C@H]3[C@@H](C[C@H]4[C@@H]5CC[C@H]6C[C@@H](N)CC[C@]6(C)[C@H]5CC[C@]34C)O[C@@]2(O)C1 No
